Test system: DU-145
Test: NCI tumour cell line growth inhibition, 48 h
Activity calls are given as the source filed them. Rule as the data show it: active = GI50 up to about 1.1 µM and inactive = higher.
Result category, one only: 1 (yes) = active, 0 (no) = inactive

## Task # outcome recorded in this test, key = O=C(O)C(CCc1ccccc1)N1C(=O)c2ccccc2C1=O (stereo not drawn)
## Result 0 (no)

## Task Answer briefly: the call reported for COc1c(OC(C)=O)c(OC(C)=O)cc2c1-c1ccc(OC)c(=O)cc1C(NC(C)=O)CC2 (stereo not drawn) in this assay.
## Result 1 (yes)

## Task Assay result, entry `CCCCC(CCCC)=NNC(=S)SC` — outcome?
## Result 0 (no)

###

Test system: TK-10
Experiment: NCI tumour cell line growth inhibition, 48 h
Activity calls are given as the source filed them. Rule as the data show it: active = GI50 up to about 1.1 µM and inactive = higher.
Could you please report measured GI50 for the items listed next?

## Task Quote GI50 reported for CCN1C(=O)c2ccccc2C1(O)c1ccc(Cl)cc1 (centres undefined) please.
## Result 94.4 µM (inactive)

## Task Name the recorded GI50 of the compound listed here: `Cc1cc2occ(S(=O)(=O)NC(=O)Nc3ccc(Cl)cc3)c(=O)c2c(=O)o1`
## Result > 100 µM (inactive)

## Task Return GI50 (reported value) for this compound: `COc1ccc2c(c1)/C(=C\c1c(Cl)[nH]c3cc(C)c(OC)cc13)C(=O)N2`
## Result 1.64 µM (inactive)

## Task Tell me GI50 reported for `N#Cc1ccccc1NC(=O)c1ccccc1`
## Result > 100 µM (inactive)

###

Tested on: NCI-H460
Assay: NCI tumour cell line growth inhibition, 48 h
Active and inactive are the calls of the source. Cut-off read from the data, not from the text of the source: active = GI50 up to about 1.1 µM and inactive = higher.
Entry note: the call must match one of yes for active, no for inactive

## Task Status in this test for COc1c(OC(C)=O)c(OC(C)=O)cc2c1-c1ccc(OC)c(=O)cc1C(NC(C)=O)CC2 (stereo not drawn) ?
## Result yes

## Task Please let me know the test result on file for `ClCCC[Si]12OCCN(CCO1)CCO2` .
## Result no

## Task How was CCCCCCCCCCCCCCCC(=O)NCC(COP(=O)([O-])OCC[N+](C)(C)C)OCC (stereo not drawn) classified in this test?
## Result no

## Task Please let me know the test result on file for `CC(=O)Nc1ccc2cc3[nH]c4cc(NC(C)=O)ccc4c3nc2c1` .
## Result no

## Task GET /call?item= `O=C1NC(=O)C(=Cc2c3ccccc3cc3ccccc23)C(=O)N1` returns the recorded outcome of this test.
## Result no

## Task Can you look up the reported call for `Cc1cc(C)nc(NS(=O)(=O)c2ccc(NC(=O)c3ccc(Cl)c4c(Nc5ccc(S(=O)(=O)Nc6cc(C)on6)cc5)c5ccccc5nc34)cc2)n1` for me?
## Result no

## Task Dear colleague, could you share the recorded outcome for `Cc1cc2occ(S(=O)(=O)NC(=O)Nc3ccc(Cl)cc3)c(=O)c2c(=O)o1` when you have a moment?
## Result no

## Task // param item: `O=C(NC12CC3CC(CC(C3)C1)C2)n1cnc2c(Cl)ncnc21` ; yields the recorded call
## Result no

###

Tested on: SK-MEL-5
Test: NCI tumour cell line growth inhibition, 48 h
The source made the active and inactive calls. Rule as the data show it: active = GI50 up to about 1.1 µM and inactive = higher.
Respond only with the outcome that fits, drawn from true = active, false = inactive

## Task Which result was noted for this compound in the test: CC(=O)OCC(OC(C)=O)C(OC(C)=O)C(OC(C)=O)C(=O)CNn1c(-c2ccc(C)cc2)nc2ccccc2c1=O (stereo unspecified)
## Result false

## Task Please indicate how the test categorized `Cc1ccc(Cl)c2[nH]c(-c3ccccc3)cc(=O)c12` .
## Result false

## Task Call for entry `CCOC(=O)/C=C(/CN1C(=O)c2ccccc2C1=O)c1ccccc1` :
## Result false

## Task In this assay, the call recorded for `CC1=CC(=O)c2ccc3c4ccccc4n(C)c3c2C1=O` was what?
## Result false

## Task Hi team, can someone confirm the assay call for O=C(CCc1ccc(O)cc1)c1c(O)cc(O)cc1OC1OC(CO)C(O)C(O)C1O (stereo unspecified) ?
## Result false

## Task Name the outcome recorded for `CC1(C)CC(=O)c2c(nc3c4c([nH]c(-c5ccc(Br)cc5)c24)CC(C)(C)C3)C1` in the assay.
## Result false

## Task Check the results log: what was the call for `Cc1c(-c2cc(-c3ccccc3)n[nH]c2=O)c2ccccc2n1C` ?
## Result false

## Task Per the records of this test, what outcome belongs to CCCCCCCCCCCCCCCC(=O)NC1CCc2cc(O)c(O)c(O)c2-c2ccc(SC)c(=O)cc21 (stereo unspecified) ?
## Result false

## Task Please share the test call associated with `CC(=O)Nc1ccc2cc3[nH]c4cc(NC(C)=O)ccc4c3nc2c1` .
## Result false

## Task So what was the verdict on `Nc1nc(=O)c(/N=N/c2ccccc2)c(N)[nH]1` in this test?
## Result false

## Task Hi, do you know how COC1/C=C/C(C)C(C(C)C(OC)C(C)CCC(=O)C(C)C(C/C=C/N(C)C=O)OC)OC(=O)/C=C/C=C(\C)CC(OC)CC2=CC(=O)O[C@H](C2)C(C)C(OC)CC(OC)/C=C/C(C)C(OC)C1 (stereo partly specified) came out in this test?
## Result true

## Task GET /call?item= `N#Cc1c(C#N)c(-c2ccco2)n(-c2ccccc2)c1N` returns the recorded outcome of this test.
## Result false

## Task Test call, this compound: `CC(C)OP(=O)(OC(C)C)C(C)(C)O`
## Result false

## Task State the result this test recorded for `C=CCc1cccc2cc(C(=O)Nc3ccccc3)c(=N)oc12` .
## Result false

## Task Field: outcome | Entry: `COC(=O)CCC(=O)c1ccc2c(c1)CC1(Cc3ccccc3C1)C2`
## Result false

## Task What outcome does the record of this test show for COC1(c2ccccc2)N=C(S)NN=C1c1ccccc1 (stereo unspecified) ?
## Result false

## Task Short answer needed: outcome of this test for `CN(C(=O)c1ccco1)C(=S)N1CCN(c2ccccc2)CC1` ?
## Result false

## Task Given `O=C(NC12CC3CC(CC(C3)C1)C2)n1cnc2c(Cl)ncnc21` , state the outcome it received in this test.
## Result false

## Task Recorded call for `COC(=O)C1(C(=O)OC)Cc2ccc(C)cc2C2=C1C(=O)c1ccccc1C2=O` ?
## Result false

## Task Query: recorded result category for `Cc1cn(S(=O)(=O)c2ccccc2)c2c(OCc3ccccc3)cc([N+](=O)[O-])cc12` in this test
## Result false

## Task Record lookup: outcome of this test for CCN1c2ccccc2C(C(SC)S(=O)(=O)c2ccc(C)cc2)c2c1[nH]c(=O)n(C)c2=O (stereo unspecified) ?
## Result false

## Task Just curious, what result did `CCOC(=O)c1c2ccc(/C=C/c3ccccc3)ccc-2c(C(=O)OCC)c1N` get here?
## Result false

## Task Can you look up the reported call for `O=[N+]([O-])c1cc(/C=N/NS(=O)(=O)c2ccc(F)cc2)c(O)c([N+](=O)[O-])c1` for me?
## Result false

## Task Any idea what this test logged for `CCCCCCCCCCCCCC(=O)CBr` ?
## Result false

## Task Recorded call for COc1ccc(C(=O)C(CC2C(=O)NC(=O)NC2=O)c2ccc(OC)cc2)cc1 (stereo unspecified) ?
## Result false

## Task Kindly provide the recorded test outcome for the following compound: `c1ccc(SC(Sc2ccccc2)=C2CCC2)cc1`
## Result false

## Task Please share the test call associated with COc1cc2cc(C(=O)N3CC(CCl)c4ccc(N(C)C)cc43)[nH]c2c(OC)c1OC (stereo unspecified) .
## Result true

## Task Outcome? `Clc1c(Cl)c2c(Cl)c(Cl)c1C[PH](c1ccccc1)(c1ccccc1)CC[PH](c1ccccc1)(c1ccccc1)Cc1c(Cl)c(Cl)c(c(Cl)c1Cl)C[PH](c1ccccc1)(c1ccccc1)CC[PH](c1ccccc1)(c1ccccc1)C2`
## Result false

## Task Record lookup: outcome of this test for `CCN(CC)CCN1CCN=c2c3cc(OC)ccc3n3cnc4ccc1c2c43` ?
## Result false

## Task How was [N-]=[N+]=NC1C(O)C(CO)OC1n1ccc(N)nc1=O (stereo unspecified) classified in this test?
## Result false

## Task What did the test return for C[N+](C)(C)CC1CCC/C1=N/O (stereo unspecified) ?
## Result false

## Task Could you please tell me the result logged for C/C(=C\CCC1=CC(=O)OC1)CC[C@@H]1[C@H]2C(=O)CC(C)[C@@]3(C)CC[C@]1(C)[C@@]23C (stereo partly specified) in this assay?
## Result false

## Task What outcome does the record of this test show for `COc1ccccc1NC(=O)/C(=C/c1ccccc1)C(C)=O` ?
## Result false

## Task Record request — test call for `CC(C)O/C=C1\C(=O)C2(SCCS2)[C@H]2CCCC[C@@H]12`
## Result false

## Task Which outcome was entered for the compound `CN(C)CCCNc1c2c(nc3ccc(Cl)cc13)CCCC2` in this test?
## Result false

## Task # lookup: test call for `CCOC(=O)c1c(-c2ccccc2)oc(=O)c(Cc2cccc3cccnc23)c1-c1ccccc1`
## Result false
